Tested on: MOLM14;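 also: after 48 h exposure read by CellTiter-Glo luminescence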
Assay: cell viability relative to vehicle control; higher = less cytotoxic
Conditions: 10 µM; SRSF2 genotype: SRSF2 P95H/wt
Counter-ions that a name gives are not always drawn.
readout_label: cell viability (%)
// return numeric value only (unit: %, not printed)

compound | readout_label | val
COC1=C[C@]23CCCN2CCc2cc4c(cc2[C@@H]3[C@@H]1O)OCO4 [Cephalotaxine] | cell viability | 96.1
CC(C)=CCC[C@](C)(O)[C@H]1CC[C@]2(C)[C@@H]1[C@H](O)C[C@@H]1[C@@]3(C)CC[C@H](O[C@@H]4O[C@H](CO)[C@@H](O)[C@H](O)[C@H]4O)C(C)(C)[C@@H]3CC[C@]12C [20S-Ginsenoside Rh2] | cell viability | 103
COC(=O)Nc1nc2ccccc2[nH]1 [Carbendazim] | cell viability | 58.5
O=C/C=C/c1ccccc1 [Cinnamaldehyde] | cell viability | 96.1
COc1ccc2c(c1)[nH]c1c(C)nccc12 [Harmine hydrochloride] | cell viability | 54.3

Lab note: compound NCC(O)c1ccc(O)cc1 (racemic) [(+,-)-Octopamine HCl] tested on MOLM14; recorded cell viability was 99.5

The value of cell viability recorded for N#CC(C#N)=NNc1ccc(OC(F)(F)F)cc1 when tested on MOLM14 reads 14.5

Query O=C1C2CCN(CC2)C1(CO)CO on MOLM14; cell viability returned: 34.1

So the reported cell viability for CCc1c2c(nc3ccccc13)-c1cc3c(c(=O)n1C2)COC(=O)[C@]3(O)CC [7-Ethylcamptothecin] , on MOLM14, turned out to be 0.48
